Data origin: patent EP1824830B1

# tgt: Dopamine D3 (Homo sapiens)
# Sequence (P35462 whole entry): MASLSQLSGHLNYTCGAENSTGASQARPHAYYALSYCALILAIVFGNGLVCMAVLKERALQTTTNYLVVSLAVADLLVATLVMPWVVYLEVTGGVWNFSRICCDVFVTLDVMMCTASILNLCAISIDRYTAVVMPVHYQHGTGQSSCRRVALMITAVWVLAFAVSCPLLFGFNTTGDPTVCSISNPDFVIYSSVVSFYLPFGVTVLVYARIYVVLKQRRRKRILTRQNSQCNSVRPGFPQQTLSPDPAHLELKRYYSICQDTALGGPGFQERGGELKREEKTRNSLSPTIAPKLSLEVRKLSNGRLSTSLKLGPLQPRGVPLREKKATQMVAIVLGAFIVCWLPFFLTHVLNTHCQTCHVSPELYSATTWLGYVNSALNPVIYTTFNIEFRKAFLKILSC

# entry smiles, Ki / nM
data = [
    ("CN1CCN(c2cccc3cc(S(=O)(=O)c4cccc(F)c4)cnc23)CC1", 977),
]

* * *

# tgt: 5-HT7 (Homo sapiens, UniProt P34969)
# Sequence (P34969 whole entry, species assumed): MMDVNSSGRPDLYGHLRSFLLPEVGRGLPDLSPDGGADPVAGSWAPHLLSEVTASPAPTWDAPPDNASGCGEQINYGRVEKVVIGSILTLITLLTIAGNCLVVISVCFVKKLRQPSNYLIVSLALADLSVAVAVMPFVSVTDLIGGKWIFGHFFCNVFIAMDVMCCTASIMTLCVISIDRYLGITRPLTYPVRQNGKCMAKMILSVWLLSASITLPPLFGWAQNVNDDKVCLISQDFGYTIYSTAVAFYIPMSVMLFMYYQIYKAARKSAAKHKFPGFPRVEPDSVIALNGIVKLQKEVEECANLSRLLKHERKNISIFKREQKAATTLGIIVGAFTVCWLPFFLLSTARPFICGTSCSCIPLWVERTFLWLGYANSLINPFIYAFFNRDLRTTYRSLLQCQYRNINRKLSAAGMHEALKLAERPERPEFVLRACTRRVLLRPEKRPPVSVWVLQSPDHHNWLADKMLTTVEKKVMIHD
pKi: −log10 of the molar value.

# entry smiles, tgt, pKi
rows = [
    ("CN1CCN(c2cccc3cc(S(=O)(=O)c4cccc(F)c4)cnc23)CC1", "5-HT7 (Homo sapiens, UniProt P34969)", "< 5.00"),
]

* * *

# tgt: human recombinant 5-HT6 receptor (Homo sapiens)
# Sequence (P50406 whole entry): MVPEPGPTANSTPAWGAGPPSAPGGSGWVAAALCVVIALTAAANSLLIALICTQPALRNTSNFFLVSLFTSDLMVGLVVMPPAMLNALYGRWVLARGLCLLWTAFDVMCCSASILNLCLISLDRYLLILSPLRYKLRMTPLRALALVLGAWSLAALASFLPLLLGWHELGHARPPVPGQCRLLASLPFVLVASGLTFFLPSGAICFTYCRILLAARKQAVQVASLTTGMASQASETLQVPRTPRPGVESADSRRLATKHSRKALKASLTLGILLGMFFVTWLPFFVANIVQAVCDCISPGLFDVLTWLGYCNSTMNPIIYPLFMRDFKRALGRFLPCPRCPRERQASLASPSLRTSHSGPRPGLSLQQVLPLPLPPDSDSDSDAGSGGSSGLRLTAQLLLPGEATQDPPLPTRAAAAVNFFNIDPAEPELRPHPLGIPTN
# assay procedure: Radioligand binding, competition studies with [^3H]LSD
# condition: human recombinant 5-HT6 receptor stably expressed in the HeLa cell line; [^3H]LSD as radioligand

# entry smiles, unit tag, Ki
rows = [
    ("CN1CCN(c2cccc3cc(S(=O)(=O)c4cccc(F)c4)cnc23)CC1", "nM", 0.151),
]
